Exercise: for every item that follows, state its recorded fluorescence intensity.
- test-method-notes: compound fluorescence in toxin protease inhibitor counterscreen, primary screen, artefact control for toxin protease inhibitor project, biochemical, multiplex microsphere, HTS (AID 624483)
- recorded-conditions: compound autofluorescence counterscreen, microsphere flow cytometry; active compounds read high
About 11,000 (3.1%) of roughly 360,000 compounds were called active. Not shown: some 2% with an inconclusive outcome. This is one part of a sample in which actives are shown more often than they occur.
Numbers only.

Consider the reported fluorescence intensity for these compounds:
Cn1c2ccccc2n2c(=O)c(=O)n(CC(=O)c3ccc(F)cc3)nc12 : 8720
Cc1ccc(S(=O)(=O)N(c2cccc(C)c2)C2CCS(=O)(=O)C2)cc1 (stereo not drawn) : 21200

Parameters: items (list). Returns: fluorescence intensity for each item.
1. O=S1(=O)CC(NCc2ccccc2)C(Nc2ccc(Cl)cc2)C1 (stereo not drawn)
2. COc1ccc(CN2CCC(C)(Oc3cccc(F)c3)C2)c2ccccc12 (stereo not drawn)
3. Cc1occc1C(=O)NC1CCCN(Cc2ccc(CC(C)C)cc2)C1 (stereo not drawn)
4. O=C(COC(=O)CCc1ccc(S(=O)(=O)N2CCOCC2)cc1)Nc1cccc(Cl)c1
5. CCCN1C(=O)C(NC(C)=O)c2cc(OC)ccc21 (stereo not drawn)
6. CCOc1cc(C)c(Cl)cc1S(=O)(=O)n1nnc2ccccc21
7. C=CCn1c(=O)n(C)c2c(=O)n(C)c(=O)n(C)c21
8. CCc1nc2ccc(C(=O)Nc3cccc(OC)c3)cn2c1N(CCC(C)C)CCN(C)C

## Result
[3670, 3240, 7560, 4250, 2550, 10500, 3000, 3940]

Parameters: items (list). Returns: fluorescence intensity for each item.
1. CCOc1ccc(-c2noc(CCC(=O)NC3CCCC3)n2)cc1OC
2. CCCc1cc(=S)n2c([nH]c3ccccc32)c1C#N
3. Clc1ccc(C[n+]2cc(-c3ccccc3)n3c2CCC3)cc1
4. CCOC(=O)C1CCCN(C(=O)c2cccc3ccccc23)CC1 (stereo not drawn)
5. O=C1/C(=C/c2ccc3c(c2)OCO3)Oc2cc(OCC(=O)N3CC(O)C[C@H]3C(=O)O)ccc21 (stereo partly drawn)

## Result
4230
3240
3590
3960
5670

###

- test-method-notes: compound fluorescence in toxin protease inhibitor counterscreen, primary screen, artefact control for toxin protease inhibitor project, biochemical, multiplex microsphere, HTS (AID 624483)
- recorded-conditions: compound autofluorescence counterscreen, microsphere flow cytometry
Among all 360,000 compounds or so, about 11,000 (3.1%) were called active. Another 2% or so got no clear call; they are omitted. Cut-off read from the data, not from the text of the source: active = fluorescence intensity above about 16000; inconclusive = no clear call, values can overlap the other calls; inactive = below that. For the sample, actives were picked, then their nearest neighbours and some compounds at random.
Output constraint: value belongs to class 1 for active, class 0 for inactive

Field: example entries. Status: answers known.
COc1ccc2cc(C(=O)NCC3CCCO3)[nH]c2c1 (configuration not stated) : class 0
Nc1nnnn1/N=C/c1cccc(Br)c1 : class 0
CC1=C(C(=O)OCC2CCCCC2)C(c2ccc(F)cc2)NC(=O)N1 (configuration not stated) : class 0
CC(=O)Nc1cncc(-c2ccccc2CO)n1 : class 0
COc1ccc2c(c1)CCc1c(C(=O)N3CCCC3)noc1-2 : class 1
Nc1c(-c2ccccc2)nnn1Cc1ccccc1 : class 0

## Task Which outcome was assigned to COCc1[nH]nc2c1C(C1C=CCCC1)C(C#N)=C(N)O2 (configuration not stated) in this test?
## Result class 0

## Task Which outcome was assigned to CSc1ncccc1C(=O)Nc1cccc(S(=O)(=O)N2CCOCC2)c1 in this test?
## Result class 0

###

- test-method-notes: compound fluorescence in toxin protease inhibitor counterscreen, primary screen, artefact control for toxin protease inhibitor project, biochemical, multiplex microsphere, HTS (AID 624483)
- recorded-conditions: compound autofluorescence counterscreen, microsphere flow cytometry
About 11,000 (3.1%) of roughly 360,000 compounds were called active. Inconclusive results (about 2%) are left out. Rule as the data show it: active = fluorescence intensity above about 16000; inconclusive = no clear call, values can overlap the other calls; inactive = below that. Only a selection was taken, and actives are over-represented in it overall.
Output constraint: value belongs to active, inactive

Field: example entries. Status: answers known.
COCCCn1c(=O)/c(=C/c2ccccc2OC(C)C)s/c1=C(\C#N)C(=O)Nc1ccc(C(=O)O)cc1 : inactive
O=c1[nH]c(=O)n(CCc2ccc(F)cc2)c(O)c1/C=N/N1CCCCC1 : inactive
COc1c(F)c(F)c(C(=O)O)c(Nc2ccccc2C)c1F : active

## Task Which outcome was assigned to Cc1ccccc1CS(=O)(=O)CC1(O)CCN(C(=O)c2cccc(C(F)(F)F)c2)CC1 in this test?
## Result active

## Task Which outcome was assigned to COc1ccc(N2C(=O)c3ccccc3NC2c2ccc(OC)c(CN3CCOCC3)c2)cc1 (configuration not stated) in this test?
## Result inactive

## Task Which outcome was assigned to CCOC(=O)c1cc(NC(=O)c2cccnc2)cc(C(=O)OCC)c1 in this test?
## Result active

## Task Which outcome was assigned to CCOC(=O)N1CCN(C(=O)c2cnc3n(c2=O)CCS3)CC1 in this test?
## Result inactive

###

- test-method-notes: compound fluorescence in toxin protease inhibitor counterscreen, primary screen, artefact control for toxin protease inhibitor project, biochemical, multiplex microsphere, HTS (AID 624483)
- recorded-conditions: compound autofluorescence counterscreen, microsphere flow cytometry; active compounds read high
Among all 360,000 compounds or so, about 11,000 (3.1%) were called active. Roughly 2% stayed inconclusive and do not appear here. The full list was thinned out, with actives kept by preference.
result-type: fluorescence intensity
One number for each entry.

Consider the reported fluorescence intensity for these molecules:
Cc1cc(C)c2cc(CN(Cc3cccs3)Cc3nnnn3CC3CCCO3)c(=O)[nH]c2c1 (stereo not drawn) : 11000
NNc1nc2c(Cl)cccc2s1 : 6940
Cc1nnsc1C(=O)Nc1cccc(Cl)c1C : 4480
COc1ccc(NC(=O)C(Br)C(C)C)cc1 (stereo not drawn) : 3200
CC1(C(=O)Nc2ccccc2Br)CCN1C(=O)CC1CC1 (stereo not drawn) : 4640

Parameters: items (list). Returns: fluorescence intensity for each item.
1. CCOC(=O)C1=CC[C@@H](c2ccccc2)N(S(=O)(=O)c2ccc(C)cc2)[C@H]1c1cccc(OC)c1
2. O=C(Nc1ccccn1)C1CCN(S(=O)(=O)c2ccc3c(c2)OCCO3)CC1
3. COc1cccc(NC(=O)C2(C)CCN2Cc2ccccc2Cl)c1 (stereo not drawn)
4. COc1cc(C=C(OC(C)=O)c2ccc3c(c2)OCO3)cc(OC)c1OC

## Result
[6140, 4090, 3880, 6370]

###

- test-method-notes: compound fluorescence in toxin protease inhibitor counterscreen, primary screen, artefact control for toxin protease inhibitor project, biochemical, multiplex microsphere, HTS (AID 624483)
- recorded-conditions: compound autofluorescence counterscreen, microsphere flow cytometry; active compounds read high
About 11,000 (3.1%) of roughly 360,000 compounds were called active. Inconclusive results (about 2%) are left out. This excerpt belongs to a sample that is enriched for actives.
result-type: fluorescence intensity
One number for each entry.

Cc1cc(C)cc(NC(=O)CN2C(=O)c3ccccc3C2=O)c1 : 4110

Parameters: items (list). Returns: fluorescence intensity for each item.
1. COc1ccc(NC(=O)COC(=O)C2COc3ccccc3O2)cc1 (configuration not stated)
2. CCOC(=O)c1cnc2nc(SCc3ccccc3Cl)[nH]n2c1=O
3. COc1ccccc1C(=O)c1ccccc1C(=O)c1ccccc1

## Result
1. 3930
2. 4010
3. 4030

###

- test-method-notes: compound fluorescence in toxin protease inhibitor counterscreen, primary screen, artefact control for toxin protease inhibitor project, biochemical, multiplex microsphere, HTS (AID 624483)
- recorded-conditions: compound autofluorescence counterscreen, microsphere flow cytometry
The campaign covered roughly 360,000 compounds. About 11,000 (3.1%) were called active. About 2% were inconclusive and are not listed. No stated cut-off is given here; in the data, active means fluorescence intensity above about 16000; inconclusive means no clear call, values can overlap the other calls; inactive means below that. Many of the other results were omitted from the sample, so actives are more common in it than they were.
Output constraint: value belongs to active, inactive

COc1ccc(C)cc1S(=O)(=O)NCCc1ccccc1 : inactive

## Task Which outcome was assigned to Cc1ccnc(NC(=O)c2ccoc2C)c1 in this test?
## Result inactive

###

- test-method-notes: compound fluorescence in toxin protease inhibitor counterscreen, primary screen, artefact control for toxin protease inhibitor project, biochemical, multiplex microsphere, HTS (AID 624483)
- recorded-conditions: compound autofluorescence counterscreen, microsphere flow cytometry
In all, about 360,000 compounds went through this assay and about 11,000 (3.1%) were called active. Another 2% or so got no clear call; they are omitted. Cut-off read from the data, not from the text of the source: active = fluorescence intensity above about 16000; inconclusive = no clear call, values can overlap the other calls; inactive = below that. For the sample, actives were picked, then their nearest neighbours and some compounds at random.
Output constraint: value belongs to y for active, n for inactive

Field: example entries. Status: answers known.
CCCCOC(=O)c1ccc(N2C(=O)CC(N3CCN(C/C=C/c4ccccc4)CC3)C2=O)cc1 (stereo not drawn) : y
O=C(COc1ccc(S(=O)(=O)Nc2cccc(C(F)(F)F)c2)cc1)N1CCOCC1 : n

We next turn to a different molecule, shown below.
## Task Which outcome was assigned to Cc1ccc(-c2c[n+](CC(=O)Nc3ccccc3)c3n2CCC3)cc1 in this test?
## Result n
